biological target: T1, cyno activated protein C (cyno (monkey)); test: SPR (Biacore), 1:1 binding model
T1 construct: also called cyno aPC; cyno APC
measure-name: koff (s⁻¹)
Answers are plain numbers, in s⁻¹.

Record excerpt, results attached:
1. Hu1573-15 (antibody, V domains shown, Humanized IgG, human gamma 1 / kappa constant regions by vectors pCP-hCg1 and pCP-hck; also called H1573VH.1F + H1573Vk.2) VH: EVQLVESGGGLVQPGGSLRLSCAASGFTFSNYYLNWVRQAPGKGLEWVADIRLKSNNYEKHYAESVKGRFTISRDDSKSSVYLQMNSLKTEDTAVYYCIREGDYFDYWGQGTTVTVSS VL: DIVMTQTPLSLSVTPGQPASISCRASESVDSFGATFMHWYLQKPGQPPQLLIYLASNLESGVPDRFSGSGSGTDFTLKISRVEAEDVGVYYCQQNNEDPYTFGQGTKLEIKR: 0.00452
2. Hu1573-8 (antibody, V domains shown, Humanized IgG, human gamma 1 / kappa constant regions by vectors pCP-hCg1 and pCP-hck; also called H1573VH.1C + H1573Vk.2B) VH: EVQLVESGGGLVQPGGSLRLSCAASGFTFSNYYLNWVRQAPGKGLEWVADIRLKSNNYEKHYAESVKGRFTISRDDSKNSLYLQMNSLKTEDTAVYYCIREGDYFDYWGQGTTVTVSS VL: DIVMTQTPLSLSVTPGQPASISCRASESVDSFGATFMHWYLQKPGQPPQLLIYLASNLESGVPDRFSGSGSRTDFTLKISRVEAEDVGVYYCQQNNEDPYTFGQGTKLEIKR: 0.00447

Turning now to a further binder:
State the recorded koff for this entry: Hu1573-16 (antibody, V domains shown, Humanized IgG, human gamma 1 / kappa constant regions by vectors pCP-hCg1 and pCP-hck; also called H1573VH.1F + H1573Vk.2A) VH: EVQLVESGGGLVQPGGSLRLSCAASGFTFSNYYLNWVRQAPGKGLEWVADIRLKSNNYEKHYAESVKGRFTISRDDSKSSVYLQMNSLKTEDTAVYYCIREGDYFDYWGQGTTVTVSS VL: DIVLTQTPLSLSVTPGQPASISCRASESVDSFGATFMHWYLQKPGQPPQLLIYLASNLESGVPDRFSGSGSGTDFTLKISRVEAEDVGVYYCQQNNEDPYTFGQGTKLEIKR
0.00373
